Reported Germination %* at concentration of 0.01 mg I^−1 values follow for various molecules
# Test system: Orobanche cumana Wallr. seeds
# Experiment description: Orobanche cumana seed germination test on glass fiber filter paper in petri dishes
# Format: in vivo
# Assay context: preconditioned Orobanche cumana seeds of lot IN153, race F; 0.01 mg I^−1; mean, n = 5 × 100 seeds; aqueous control (0.001% DMSO) = 0.2% germination
Quick reminder: number only, in %, skip the unit.

For reference, reported Germination %* at concentration of 0.01 mg I^−1 for CC1=CC(OC=C2C(=O)NC3c4cccc(-c5ccccc5)c4CC23)OC1=O (mixture of isomers) stands at 84.4

###

# System: Orobanche cumana Wallr. seeds
# Experiment description: Orobanche cumana seed germination test on glass fiber filter paper in petri dishes
# Assay type: in vivo
# Assay context: preconditioned Orobanche cumana seeds of lot IN153, race F; 0.1 mg I^−1; mean, n = 5 × 100 seeds; aqueous control (0.001% DMSO) = 0.2% germination
Germination %* at concentration of 0.1 mg I^−1 vs 80%: less than gives satisfied; not less than gives not satisfied.

Examples with answers:
{"Compound": "CC1=C[C@H](O/C=C2/C(=O)O[C@@H]3c4ccccc4C[C@H]23)OC1=O [GR24, reference compound]", "Class": "not satisfied"}
{"Compound": "CC1=CC(OC=C2C(=O)NC3c4cccc(-c5nccs5)c4CC23)OC1=O (mixture of isomers)", "Class": "satisfied"}
{"Compound": "CC1=C[C@H](O/C=C2/C(=O)N[C@@H]3c4c(cccc4C4CC4)C[C@H]23)OC1=O", "Class": "not satisfied"}
{"Compound": "CC1=CC(OC=C2C(=O)NC3c4cccc(-c5ccccc5)c4CC23)OC1=O (mixture of isomers)", "Class": "satisfied"}
{"Compound": "CC1=CC(OC=C2C(=O)NC3c4cccc(-c5cccnc5)c4CC23)OC1=O (mixture of isomers)", "Class": "not satisfied"}
{"Compound": "CC1=CC(OC=C2C(=O)NC3c4cccc(-c5ccncc5)c4CC23)OC1=O (mixture of isomers)", "Class": "satisfied"}

Prompt: Here's an entry: CC1=C[C@H](O/C=C2/C(=O)N[C@@H]3c4cccc(C#Cc5ccccc5)c4C[C@H]23)OC1=O (relative stereo) . Is its Germination %* at concentration of 0.1 mg I^−1 below 80%?
Completion: not satisfied

Prompt: Here's an entry: CC1=CC(OC=C2C(=O)NC3c4cccc(-c5ccco5)c4CC23)OC1=O (mixture of isomers) . Is its Germination %* at concentration of 0.1 mg I^−1 below 80%?
Completion: not satisfied

###

Measured Germination %* at concentration of 0.01 mg I^−1 by item
# Tested on: Orobanche cumana Wallr. seeds
# Experiment description: Orobanche cumana seed germination test on glass fiber filter paper in petri dishes
# Format: in vivo
# Assay context: preconditioned Orobanche cumana seeds of lot IN153, race F; 0.01 mg I^−1; mean, n = 5 × 100 seeds; aqueous control (0.001% DMSO) = 0.2% germination
# Method: The effect of compounds of Formula (I) on germination of Orobanche cumana Wallr. seeds was evaluated on glass fiber filter paper (GFFP) in petri dishes. […] Seeds of O. cumana race ‘F’ were collected from sunflower fields in Manzanilla (Seville, Spain) in 2006 (seed lot 1N146) and 2008 (seed lot 1N153) and stored at room temperature. […] Germination of 100 seeds per replicate was evaluated on digital images. […]
Quick note: number first, unit second.

Some compounds with known Germination %* at concentration of 0.01 mg I^−1 results, for comparison:
{"Compound": "CC1=C[C@H](O/C=C2/C(=O)O[C@@H]3c4ccccc4C[C@H]23)OC1=O [GR24, reference compound]", "Experimental target": "Orobanche cumana Wallr. seeds", "Reported result": "83.2%"}
{"Compound": "CC1=CC(OC=C2C(=O)NC3c4cccc(-c5ccco5)c4CC23)OC1=O (mixture of isomers) [Compound A13]", "Experimental target": "Orobanche cumana Wallr. seeds", "Reported result": "66.4%"}
{"Compound": "CC1=CC(OC=C2C(=O)NC3c4cccc(-c5nccs5)c4CC23)OC1=O (mixture of isomers) [Compound A12]", "Experimental target": "Orobanche cumana Wallr. seeds", "Reported result": "7.0%"}
{"Compound": "CC1=CC(OC=C2C(=O)NC3c4cccc(-c5ccncc5)c4CC23)OC1=O (mixture of isomers) [Compound A10]", "Experimental target": "Orobanche cumana Wallr. seeds", "Reported result": "18.0%"}
{"Compound": "CC1=C[C@H](O/C=C2/C(=O)N[C@@H]3c4cccc(C#Cc5ccccc5)c4C[C@H]23)OC1=O (relative stereo) [Compound A6]", "Experimental target": "Orobanche cumana Wallr. seeds", "Reported result": "40.2%"}

Per the record, CC1=C[C@H](O/C=C2/C(=O)N[C@@H]3c4c(cccc4C4CC4)C[C@H]23)OC1=O [Compound A8] has Germination %* at concentration of 0.01 mg I^−1 of 88.5%

Recorded Germination %* at concentration of 0.01 mg I^−1 (compound CC1=CC(OC=C2C(=O)NC3c4cccc(-c5cccnc5)c4CC23)OC1=O (mixture of isomers) [Compound A11] ): 65.6%
